Provenance of the data: patent US11584714B2

Biological target: mMASP-2 (Mus musculus (Mouse))
Sequence (Q91WP0 20-685): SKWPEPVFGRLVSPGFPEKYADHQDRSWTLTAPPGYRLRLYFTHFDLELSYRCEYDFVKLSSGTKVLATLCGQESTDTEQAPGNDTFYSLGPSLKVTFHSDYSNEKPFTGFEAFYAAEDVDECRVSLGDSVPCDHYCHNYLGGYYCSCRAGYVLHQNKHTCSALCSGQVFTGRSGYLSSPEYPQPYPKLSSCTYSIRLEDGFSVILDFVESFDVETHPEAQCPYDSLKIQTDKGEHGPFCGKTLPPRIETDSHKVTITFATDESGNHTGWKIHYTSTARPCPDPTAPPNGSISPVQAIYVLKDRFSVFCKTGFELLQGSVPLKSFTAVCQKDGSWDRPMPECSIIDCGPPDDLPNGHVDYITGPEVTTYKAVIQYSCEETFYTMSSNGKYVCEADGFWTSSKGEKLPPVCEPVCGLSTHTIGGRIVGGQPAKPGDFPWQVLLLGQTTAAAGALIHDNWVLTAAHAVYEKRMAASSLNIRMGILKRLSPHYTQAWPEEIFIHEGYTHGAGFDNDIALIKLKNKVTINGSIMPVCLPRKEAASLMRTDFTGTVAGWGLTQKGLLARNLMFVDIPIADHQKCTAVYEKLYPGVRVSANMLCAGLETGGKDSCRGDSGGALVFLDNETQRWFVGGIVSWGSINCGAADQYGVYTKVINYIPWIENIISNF
Experiment: Enzymatic inhibition of mMASP-2
Type: biochemical
Settings: read-out: mMASP-2 Ki
pKi: −log10 of the molar value. Where a name gives a salt, the structure may show the parent alone.
Metric Name: pKi

### Prompt Entry Cc1cc(C[C@@H]2CN[C@@H](C(=O)N[C@@H](C)C(=O)NCc3ccc(N)nc3C)C2)ccn1 [compound 1469, Dihydrochloride] has what pKi?
### Response > 6.30

### Prompt Entry C[C@H](NC(=O)[C@H]1C[C@H](c2ccccc2)CN1)C(=O)NCc1ccc2[nH]cc(Cl)c2c1 has what pKi?
### Response 5.60 to 6.30

### Prompt Entry Cc1nc(N)ccc1CNC(=O)[C@H](C)NC(=O)[C@H]1C[C@H](Cc2ccccc2Br)CN1 [compound 1372, Di-trifluoroacetate salt] has what pKi?
### Response > 6.30

### Prompt Entry Cc1nc(N)ccc1CNC(=O)[C@H](C)NC(=O)[C@H]1C[C@@H](c2ccccc2)CCN1CCCC(=O)O [compound 1439, Trifluoroacetate salt] has what pKi?
### Response 5.00 to 5.60

### Prompt Entry C[C@H](NC(=O)[C@H]1C[C@H](c2ccccc2)CN1)C(=O)NCc1cc(Cl)ccc1NS(C)(=O)=O has what pKi?
### Response 4.60 to 5.00

### Prompt Entry Cc1nc(N)ccc1CNC(=O)[C@H](C)NC(=O)[C@H]1C[C@H](Oc2ccc(Br)cc2)CN1 [compound 1445, Dihydrochloride] has what pKi?
### Response 5.60 to 6.30

### Prompt Entry COc1cc2ccccc2cc1C[C@@H]1CN[C@@H](C(=O)N[C@@H](C)C(=O)NCc2ccc(N)nc2C)C1 [compound 1478, Dihydrochloride] has what pKi?
### Response > 6.30

### Prompt Entry Cc1nc(N)ccc1CNC(=O)[C@H](C)NC(=O)[C@H]1C[C@H](C2(c3ccccc3)CC2)CN1 [compound 1481, Di-trifluoroacetate salt] has what pKi?
### Response > 6.30

### Prompt Entry C[C@H](NC(=O)[C@@H]1C[C@@H](Cc2ccccc2)CN1)C(=O)NCc1ccc(C(=N)N)cc1 has what pKi?
### Response 5.60 to 6.30

### Prompt Entry C[C@H](NC(=O)[C@@H](CCc1ccccc1)NCc1ccc(N2CCOCC2)cc1)C(=O)NCc1ccc(C(=N)N)cc1 has what pKi?
### Response > 6.30

### Prompt Entry C[C@H](NC(=O)[C@H](N)CCc1ccccc1)C(=O)NCc1ccc2c(N)n[nH]c2c1 has what pKi?
### Response > 4.60

### Prompt Entry C[C@H](NC(=O)[C@H](N)CCc1ccccc1)C(=O)NCc1cc(Cl)ccc1CO has what pKi?
### Response < 4.60

### Prompt Entry Cc1nc(N)ccc1CNC(=O)[C@H](C)NC(=O)[C@H]1C[C@@H](c2ccccc2)CCN1CCCCCC(=O)O [compound 1412, Trifluoroacetate salt] has what pKi?
### Response 5.00 to 5.60

### Prompt Entry C[C@H](NC(=O)[C@@H](CCc1ccccc1)NCCc1cccc(O)c1)C(=O)NCc1ccc(C(=N)N)cc1 [compound 1330, Di-trifluoroacetate salt] has what pKi?
### Response > 6.30

### Prompt Entry C[C@H](NC(=O)c1cc(-c2cccc3ccccc23)c[nH]1)C(=O)NCc1ccc(C(=N)N)cc1 has what pKi?
### Response > 6.30

### Prompt Entry C[C@H](NC(=O)[C@H](N)CCc1ccc(Cl)cc1)C(=O)NCc1ccc(C(=N)N)cc1 has what pKi?
### Response > 6.30

### Prompt Entry Cc1nc(N)ccc1CNC(=O)[C@H](C)NC(=O)[C@H]1C[C@H](Cc2cc(Br)c(Cl)s2)CN1 [compound 1483, Di-trifluoroacetate salt] has what pKi?
### Response > 6.30

### Prompt Entry Cc1nc(N)ccc1CNC(=O)[C@H](C)NC(=O)[C@H]1C[C@H](Cc2cccc(Br)c2)CN1 [compound 1452, Dihydrochloride] has what pKi?
### Response > 6.30

### Prompt Entry CC[C@H]1N[C@@H](C(=O)N[C@@H](C)C(=O)NCc2ccc(N)nc2C)C[C@@H]1Cc1ccccc1 [compound 1413, Di-trifluoroacetate salt] has what pKi?
### Response 5.00 to 5.60

### Prompt Entry Cc1nc(N)ccc1CNC(=O)[C@H](C)NC(=O)[C@H]1C[C@H](Oc2ccccc2)CN1 has what pKi?
### Response 5.60 to 6.30

### Prompt Entry Cc1nc(N)ccc1CNC(=O)[C@H](C)NC(=O)[C@H]1C[C@@H](c2ccccc2)CCN1CC(=O)O [compound 1398, Trifluoroacetate salt] has what pKi?
### Response 5.60 to 6.30

### Prompt Entry CC(=O)Nc1ccc(CCN[C@H](CCc2ccccc2)C(=O)N[C@@H](C)C(=O)NCc2ccc(C(=N)N)cc2)cc1 [compound 1345, dihydrochloride] has what pKi?
### Response > 6.30

### Prompt Entry Cc1cc(Cl)cc(CNC(=O)[C@H](C)NC(=O)[C@H]2C[C@@H](c3ccccc3)CCN2)c1O [compound 1365, Hydrochloride] has what pKi?
### Response > 6.30

### Prompt Entry C[C@H](NC(=O)[C@H]1C[C@H](c2ccccc2)CN1)C(=O)NCc1cc(N)n[nH]1 [compound 1336, Dihydrochloride] has what pKi?
### Response < 4.60

### Prompt Entry Cc1nc(N)ccc1CNC(=O)[C@H](C)N(C)C(=O)[C@H]1C[C@H](Cc2ccc(Br)cc2)CN1 [compound 1497, Di-trifluoroacetate salt] has what pKi?
### Response 5.00 to 5.60

### Prompt Entry Cc1nc(N)ccc1CNC(=O)[C@H](C)NC(=O)[C@H]1C[C@H](Cc2cccc(C(F)(F)F)c2)CN1 [compound 1318, Dihydrochloride] has what pKi?
### Response > 6.30
